Tested on: Bacillus subtilis
Experiment: cleaved RNA product abundance (RNA/gDNA barcode ratio) relative to median wild-type variant (ratio to wild type); higher = more accumulation of the downstream cleavage product
Conditions: experiment (reporter, strain, medium): exp 4a: truncated aprE reporter, strain BJT201 with 2% xylose (RNase J1 expressed); cleavage site: cggR-gapA (positions -7 to +36 mutated)
Listed here are sequences together with their documented cleaved RNA product abundance.
Form field (numeric): enter value without unit.

- residue_codes: "ACAGACGAAGGAGCCGCAAAGAAGTTATGAAGGGATGAATAATCGCTCAATATAAATATCTCTCACTTATTTAAA"
  target_entity: "Bacillus subtilis"
  reported_endpoint: "cleaved RNA product abundance"
  reported_measurement: 0.0808

Q. Report the value of cleaved RNA product abundance obtained on Bacillus subtilis for ACAGACGAAGGAGCCGCAAAAAAGTTATTAAGCGATGAATAATCCCTCAATATAAATATCTCTCACTTATTTAAA .
A. 0.123

Q. Report the value of cleaved RNA product abundance obtained on Bacillus subtilis for ACAGACGAAGGAGCCGCAAAGAAATTATTAAGGGATGAATAATCCTTCAATATAAATATCTCTCACTTATTTAAA .
A. 0.674

Q. Report the value of cleaved RNA product abundance obtained on Bacillus subtilis for ACAGACGAAGGAGCCGCAAAGAAGTTATTAAGGGATGATTAATCCCTCAATATAAACATCTCTCACTTATTTAAA .
A. 0.559

Q. Report the value of cleaved RNA product abundance obtained on Bacillus subtilis for ACAGACGAAGGAGCCGCAAAGAAGTTATTAAGGGATCAATAATCCCTAAATATAAATATCTCTCACTTATTTAAA .
A. 0.657

Q. Report the value of cleaved RNA product abundance obtained on Bacillus subtilis for ACAGACGAAGGAGCCGCAAAGAAGTTATTAATGCATGAATAATCCCTCAATATAAATATCTCTCACTTATTTAAA .
A. 0.0823

Q. Report the value of cleaved RNA product abundance obtained on Bacillus subtilis for ACAGACGAAGGAGCCGCAAAGAAGTTATTAAGGGATGAATAATAGCTCAATATAAATATCTCTCACTTATTTAAA .
A. 0.13

Q. Report the value of cleaved RNA product abundance obtained on Bacillus subtilis for ACAGACGAAGGAGCCGCAATGAAGTTATTAAGGGATGAATAATCCCTCAATATAAAAATCTCTCACTTATTTAAA .
A. 1.03

Q. Report the value of cleaved RNA product abundance obtained on Bacillus subtilis for ACAGACGAAGGAGCCGCAAAGCAGTTATTAAGGTATGAATAATCCCTCAATATAAATATCTCTCACTTATTTAAA .
A. 0.0937
